measured on: CFTR (Homo sapiens, UniProt P13569, DEL508-508)
Construct: endogenous in cells; host or cells: primary human bronchial epithelial cells from CF subjects (F508del/MF-HBE), differentiated at air-liquid interface
Sequence (P13569 with tags, fused parts or gaps DEL508-508): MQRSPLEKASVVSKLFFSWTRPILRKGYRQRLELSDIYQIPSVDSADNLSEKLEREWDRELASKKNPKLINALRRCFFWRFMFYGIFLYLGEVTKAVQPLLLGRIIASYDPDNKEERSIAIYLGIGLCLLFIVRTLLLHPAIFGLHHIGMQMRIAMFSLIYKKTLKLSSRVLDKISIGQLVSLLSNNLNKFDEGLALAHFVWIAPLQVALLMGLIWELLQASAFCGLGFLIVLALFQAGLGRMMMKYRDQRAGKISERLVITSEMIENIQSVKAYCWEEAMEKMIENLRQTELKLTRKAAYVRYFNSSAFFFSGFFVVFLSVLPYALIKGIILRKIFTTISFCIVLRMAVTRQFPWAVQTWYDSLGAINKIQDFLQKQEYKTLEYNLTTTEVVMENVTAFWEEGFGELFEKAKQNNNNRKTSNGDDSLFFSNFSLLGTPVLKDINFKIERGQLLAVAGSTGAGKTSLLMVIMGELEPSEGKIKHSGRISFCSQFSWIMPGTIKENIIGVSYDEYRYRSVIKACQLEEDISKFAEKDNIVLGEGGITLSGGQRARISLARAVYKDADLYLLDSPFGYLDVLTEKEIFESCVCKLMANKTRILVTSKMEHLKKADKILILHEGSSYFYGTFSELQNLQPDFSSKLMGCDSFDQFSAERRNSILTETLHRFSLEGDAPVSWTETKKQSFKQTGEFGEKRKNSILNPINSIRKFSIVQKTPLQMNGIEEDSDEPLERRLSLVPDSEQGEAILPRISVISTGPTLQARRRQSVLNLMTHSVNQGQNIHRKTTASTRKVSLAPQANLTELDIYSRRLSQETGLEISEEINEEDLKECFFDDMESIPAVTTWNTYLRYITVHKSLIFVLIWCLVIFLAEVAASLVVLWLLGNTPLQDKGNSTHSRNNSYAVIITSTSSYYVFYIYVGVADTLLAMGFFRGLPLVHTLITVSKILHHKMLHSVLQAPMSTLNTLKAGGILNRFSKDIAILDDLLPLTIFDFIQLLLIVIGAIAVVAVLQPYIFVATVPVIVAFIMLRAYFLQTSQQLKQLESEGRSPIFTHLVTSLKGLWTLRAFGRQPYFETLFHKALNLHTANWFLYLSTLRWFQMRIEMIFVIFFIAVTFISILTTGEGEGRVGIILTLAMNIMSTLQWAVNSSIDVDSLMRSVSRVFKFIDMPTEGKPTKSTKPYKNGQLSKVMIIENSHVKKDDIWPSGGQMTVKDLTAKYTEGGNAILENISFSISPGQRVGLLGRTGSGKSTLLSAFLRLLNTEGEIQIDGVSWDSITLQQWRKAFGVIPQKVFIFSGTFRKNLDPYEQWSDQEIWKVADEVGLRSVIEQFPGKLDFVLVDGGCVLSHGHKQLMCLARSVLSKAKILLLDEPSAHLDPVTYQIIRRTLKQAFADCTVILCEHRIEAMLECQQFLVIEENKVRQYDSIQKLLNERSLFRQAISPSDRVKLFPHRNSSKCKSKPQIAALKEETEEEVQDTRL
protocol summary: HBE assay: Ussing chamber assay of CFTR-mediated short-circuit currents
Assay type: cell-based
condition details: Table 12; read-out: HBE EC50
pEC50: −log10 of the molar value.
experimental readout: pEC50

Cc1cccc(C)c1-c1cc2nc(n1)NS(=O)(=O)c1cccc(c1)C(=O)N(Cc1cncc(N(C)C3CCC34CCC4)n1)[C@H](CC(C)(C)C)CO2 (stereo partly drawn) [Compound 437] : > 6.00

Challenge: In one line, give reported pEC50 of the entry Cc1cccc(C)c1-c1cc2nc(n1)NS(=O)(=O)c1cccc(c1)C(=O)N(CC(=O)N(C)Cc1ccccn1)[C@H](CC(C)(C)C)CO2 .
Response given: > 6.00

Challenge: Report measured pEC50; entry is Cc1cccc(C)c1-c1cc2nc(n1)NS(=O)(=O)c1cccc(c1)C(=O)N(Cc1ncc(OC3CCC3)cn1)[C@H](CC(C)(C)C)CO2
Response given: > 6.00
